XC50 values by entry
System: Plasmodium falciparum
Test: GSK_TCMDC: Inhibition of Plasmodium falciparum 3D7 in whole erythrocytes, using parasite LDH activity as an index of growth.
Type: functional, organism-based
Conditions: Plasmodium falciparum, 3D7
Please reply with the bare figure in nM and do not write the unit itself.

# example entries with known answers
S=C(NCCCCCN1CCC(c2c[nH]c3ccccc23)CC1)Nc1cc(Cl)cc(Cl)c1 | 868
Cc1cccc2nc(-c3ccc(-c4cccc(NC(=O)c5cnccc5C(F)(F)F)c4)cc3)[nH]c12 | 998
Cc1ccc(NC(=O)c2ccc(-c3cc4cc(Cl)c(Cl)cc4[nH]3)cc2)cc1OCCN1CCCC1 | 991
Brc1cccc(Nc2nccc(Nc3ccc(Oc4ccccc4)cc3)n2)c1 | 1010

From here, focus on the item given below.
Would you kindly share the measured XC50 for Nc1nc(N)c2c(ccc3c2ccn3Cc2cccc(F)c2)n1 ?
3.2

* * *

log10 XC50 values by entry
System: Plasmodium falciparum
Experiment: GSK_TCMDC: Inhibition of Plasmodium falciparum 3D7 in whole erythrocytes, using parasite LDH activity as an index of growth.
Type: functional, organism-based
Details: Plasmodium falciparum, 3D7
Parameter value (number): base-10 log of XC50 in µM.

# example entries with known answers
COc1ccc(N2CCN(C(CNC(=O)C3CCCCC3)c3ccc4c(c3)OCO4)CC2)cc1 (stereo not given) | -0.25
CN1CCN(c2ccnc3ccc(NC(=O)Nc4ccc(-c5ccncc5)c(C#N)c4)cc23)CC1 | -0.80
COc1ccc(CN(C)CCCc2ccc(NC(=O)c3cccc4c(O)c5ccccc5nc34)cc2)cc1OC | 0.14
CCCc1ccc(C(=O)N2C(c3nccs3)C(C(N)=O)CC2(CC(C)C)C(=O)O)cc1 (stereo not given) | -0.81

From here, focus on the item given below.
Would you kindly share the measured log10 XC50 for CCC(C)(C)c1ccc(N2C(N)=NC(N)=NC2(C)C)cc1 ?
-1.93

* * *

Tested on: Plasmodium falciparum
Assay: GSK_TCMDC: Inhibition of Plasmodium falciparum 3D7 in whole erythrocytes, using parasite LDH activity as an index of growth.
Assay type: functional, organism-based
Details: Plasmodium falciparum, 3D7
Exam item: assign MET to entries whose XC50 is below 400 nM and NOT MET to entries at or above 400 nM. Note that a value of exactly 400 nM receives NOT MET.

Recorded results for 2 compounds are shown here.
CC(=O)Nc1ccc(OCCN(Cc2ccccc2C(F)(F)F)c2ccc(C#N)c(C(F)(F)F)c2)cc1 | NOT MET
O=C(NCCCCN1CCC(c2ccc(Br)cc2)CC1)c1ccc(NC(=O)c2ccc(Cl)cc2)cc1 | NOT MET

Next item in the queue.
Hello, is XC50 of the following compound strictly smaller than 400 nM? O=C(/C=C/c1ccc(Cl)c(Cl)c1)N1CCC(CN2CCC(c3c[nH]c4cnccc34)CC2)CC1
MET

* * *

Test system: Plasmodium falciparum
Assay: GSK_TCMDC: Inhibition of Plasmodium falciparum 3D7 in whole erythrocytes, using parasite LDH activity as an index of growth.
Type: functional, organism-based
Details: Plasmodium falciparum, 3D7
reported-metric: XC50 (nM)
Please reply with the bare figure in nM and do not write the unit itself.

O=C(Cc1cccc(Cl)c1)Nc1cccc(-c2c[nH]c3nc(Nc4ccccc4)ncc23)c1 | 678

Would you kindly share the measured XC50 for CCc1ccc(NC(=O)c2ccc(CN3CCCN(Cc4cccc(Cl)c4)CC3)cc2)cc1 ?
1110

Repeat for the following compound: Cc1[nH]c2ccccc2c1C(=O)CSc1nn(-c2ccccc2)c(=S)s1
699

Repeat for the following compound: CC(=O)c1ccc(O)c(CC(O)CO)c1 (stereo unspecified)
723

Repeat for the following compound: Cc1cccc(Nc2nc(C)cc(N3CCCN(CC4CCCCC4)CC3)n2)c1
1120

Repeat for the following compound: CCCCOC(=O)c1ccc(Nc2cc(C)nc3ccc(OC)cc23)cc1
640

* * *

Tested on: Plasmodium falciparum
Assay: GSK_TCMDC: Inhibition of Plasmodium falciparum 3D7 in whole erythrocytes, using parasite LDH activity as an index of growth.
Format: functional, organism-based
Conditions: Plasmodium falciparum, 3D7
Exam item: assign 1 to entries whose XC50 is below 1000 nM and 0 to entries at or above 1000 nM. Note that a value of exactly 1000 nM receives 0.

Nc1ccc(-c2nc3cc(-c4ccc5[nH]c(-c6ccc(N)cc6)nc5c4)ccc3[nH]2)cc1 | 1
O=C(NC1CC1)c1ccc(N2CCN(Cc3ccc(Cl)cc3)CC2)nc1 | 0
Nc1ncc(-c2ccsc2)c2ccc(-c3ccc4cn[nH]c4c3)cc12 | 1
CN1CC(c2ccc(Cl)c(Cl)c2)OC1=N (stereo not given) | 1
COc1ccc(-c2cc(C(=O)N[C@@H](CC3CCCCC3)C(=O)NCCN3CCCC3)ccc2O)cc1 | 1

Hello, is XC50 of the following molecule strictly smaller than 1000 nM? COc1cc(C(F)(F)F)cc2[nH]c(CNCCCNc3nc4ccccc4[nH]3)cc12
1

Repeat for the following molecule: O=C(NCc1ccc(F)cc1)Nc1ccc(-c2cccc(-c3nc4cc(F)ccc4[nH]3)c2)cc1
0

Repeat for the following molecule: CCN(CC)c1nc(N)c2c(N)nc3c(c2c1C#N)C(=O)CN3Cc1ccccc1
1

Repeat for the following molecule: CN(C)CCN(C)Cc1ccc(-c2ccc(NC(=O)c3cccc(Cl)c3)cc2)cc1
0

Repeat for the following molecule: Fc1ccc(OC2CN(c3nccc(NCc4ccccc4Cl)n3)C2)cc1
1

Repeat for the following molecule: Cc1sc(C)c(CNCCCNc2cc(=O)c3ccccc3[nH]2)c1Br
1

Repeat for the following molecule: CS(=O)(=O)Nc1ccc(-c2cnc3[nH]cc(-c4ccc(C(=O)O)cc4)c3c2)cc1
1

Repeat for the following molecule: CCCCCN1CCCC1CNS(=O)(=O)c1ccc(C(=O)Nc2cccc(C(F)(F)F)c2)cc1 (stereo not given)
0

Repeat for the following molecule: CN1CCc2ccc(NC(=O)Nc3cccc([N+](=O)[O-])c3)cc2C1
0

Repeat for the following molecule: CC(C)CC(=O)N(Cc1ccc(-c2ccc(CNC3Cc4ccccc4C3)cc2)cc1)C1CCNCC1
0

Repeat for the following molecule: O=C(/C=C/c1ccc(Cl)cc1Cl)NCCCCCN1CCC(c2c[nH]c3ccccc23)CC1
1

Repeat for the following molecule: Cc1[nH]c(C)c(-c2ccc(-c3ccc(OC(F)(F)F)cc3)nc2)c(=O)c1Br
1

* * *

System: Plasmodium falciparum
Test: GSK_TCMDC: Inhibition of Plasmodium falciparum 3D7 in whole erythrocytes, using parasite LDH activity as an index of growth.
Type: functional, organism-based
Conditions: Plasmodium falciparum, 3D7
Returns the class for an entry based on its XC50. Class ranges: class A (below 800 nM), class B (800 nM to below 1000 nM), class C (1000 nM or more)

Recorded results for 4 compounds are shown here.
COc1ccc(S(=O)(=O)N(CC(=O)NN=C(C)c2cccs2)c2cc(C)cc(C)c2)cc1OC | class A
CCOc1cccc(C(=O)Nc2cccc(CN3CCCN(Cc4cccc(O)c4)CC3)c2)c1 | class C
O=C(NC1CCN(Cc2ccccc2)CC1)c1cccc(-c2cc3cc(Cl)c(Cl)cc3[nH]2)c1 | class A
CC(C)(C)c1nn(-c2ccccc2)c2[nH]c(=O)c(CNC3CCCCC3)cc12 | class C

Could you tell me which band CCCCNCC(O)COc1ccccc1-c1ccc(N/N=C/c2cccc3ccccc23)nn1 (centres undefined) belongs to?
class B

* * *

Test system: Plasmodium falciparum
Test: GSK_TCMDC: Inhibition of Plasmodium falciparum 3D7 in whole erythrocytes, using parasite LDH activity as an index of growth.
Type: functional, organism-based
Conditions: Plasmodium falciparum, 3D7
XC50 values by entry
Please reply with the bare figure in µM and do not write the unit itself.

Would you kindly share the measured XC50 for Oc1ccc(CCCNc2nc(NCc3cccc4ccccc34)nc(N3CCNCC3)n2)cc1 ?
0.808

Repeat for the following compound: OC1=C2C(=Nc3ccccc3SC2c2cccs2)c2ccccc21 (stereo not given)
0.229

Repeat for the following compound: CN(C)c1ccc2c(c1)Sc1cc(N(C)C)ccc1N2C(=O)CCCC(=O)O
0.802

Repeat for the following compound: Fc1ccc2[nH]ccc(=NN=CC=Cc3ccccc3)c2c1
0.681

Repeat for the following compound: COc1cc2c(cc1N(C(C)C)S(=O)(=O)c1sc3ccc(Cl)cc3c1C)CCNCC2
1.05

Repeat for the following compound: Cc1cc(NC(=O)c2cccs2)ccc1OC1CCN(Cc2ccc(F)cc2)C1 (stereo not given)
0.669

Repeat for the following compound: COc1cccc(NC(=O)NC2CCN(CCCCCNC(=O)/C=C/c3ccc(Cl)c(Cl)c3)CC2)c1
0.777

Repeat for the following compound: CCN(CCN(C)C)Cc1ccc(-c2ccc(NS(=O)(=O)c3cccc(Cl)c3)cc2)cc1
0.523

* * *

Test system: Plasmodium falciparum
Experiment: GSK_TCMDC: Inhibition of Plasmodium falciparum 3D7 in whole erythrocytes, using parasite LDH activity as an index of growth.
Assay type: functional, organism-based
Settings: Plasmodium falciparum, 3D7
reported-metric: XC50 (nM)
Please reply with the bare figure in nM and do not write the unit itself.

Would you kindly share the measured XC50 for FC(F)(F)c1ccc2[nH]c(-c3ccc(-c4cccc(CNCCc5cccnc5)c4)s3)nc2c1 ?
170

Repeat for the following compound: COCCNCc1ccc(-c2ccc3c(Nc4ccc(F)cc4Cl)ccnc3c2)o1
209
